These measurements were taken from ChEMBL document CHEMBL1140804.

Experiment: Volume of distribution in mouse plasma at 0.2 mg/kg, iv or 5 mg/kg, po
Format: ADME, organism-based
Settings: read-out: Vdss
reported-metric: Vd (L/kg)
Expressed in L/kg, but write only the number.

Param item = O=C(NCc1ccc(NS(=O)(=O)C(F)(F)F)cc1)c1ccc(-c2ccc(Cl)cc2)cc1 ; retrieve measured Vd.
0.22

* * *

Recorded EC50 for the following molecules
Molecular target: Peroxisome proliferator-activated receptor alpha (Mus musculus)
Sequence (P23204 whole entry): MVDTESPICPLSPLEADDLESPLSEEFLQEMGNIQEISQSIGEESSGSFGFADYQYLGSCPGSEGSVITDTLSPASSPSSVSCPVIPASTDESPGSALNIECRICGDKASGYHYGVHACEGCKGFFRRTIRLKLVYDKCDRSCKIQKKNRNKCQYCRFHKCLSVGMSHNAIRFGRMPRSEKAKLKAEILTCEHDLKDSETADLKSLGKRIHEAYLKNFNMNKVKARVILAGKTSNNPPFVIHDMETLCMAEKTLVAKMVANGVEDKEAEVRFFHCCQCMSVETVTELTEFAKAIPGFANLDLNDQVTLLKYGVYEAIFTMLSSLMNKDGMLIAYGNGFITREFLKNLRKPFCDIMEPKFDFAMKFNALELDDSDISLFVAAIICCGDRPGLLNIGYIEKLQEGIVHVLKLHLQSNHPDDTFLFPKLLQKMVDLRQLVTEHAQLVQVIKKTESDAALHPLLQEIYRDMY
# unit: nM | format: bare number

{"query-smiles": "N#Cc1ccc(-c2ccc(C(=O)NCc3ccc(NS(=O)(=O)C(F)(F)F)cc3)cc2)cc1", "reported-metric": "EC50", "measurement": 200}
{"query-smiles": "Cc1nc(-c2ccc(C(F)(F)F)cc2)sc1C(=O)NCc1ccc(NS(=O)(=O)C(F)(F)F)cc1", "reported-metric": "EC50", "measurement": 2}
{"query-smiles": "COCc1nc(-c2ccc(C(=O)NCc3ccc(NS(=O)(=O)C(F)(F)F)cc3)cc2)no1", "reported-metric": "EC50", "measurement": 700}

Note: attention shifts to another entry.
Endpoint output: EC50 of O=C(Cc1ccc(-c2ccc(Cl)cc2)cc1)NCc1ccc(NS(=O)(=O)C(F)(F)F)cc1 . Value?
340
